target: human V1a receptor (Homo sapiens, UniProt P37288); assay: Cellular in vitro assay for vasopressin receptor activity, V1a cell line (aequorin luminescence); details: CHO cell line transfected with human V1a receptor; agonist [Arg8]-vasopressin at EC50 concentration; read-out: IC50hV1a
Sequence (P37288 whole entry): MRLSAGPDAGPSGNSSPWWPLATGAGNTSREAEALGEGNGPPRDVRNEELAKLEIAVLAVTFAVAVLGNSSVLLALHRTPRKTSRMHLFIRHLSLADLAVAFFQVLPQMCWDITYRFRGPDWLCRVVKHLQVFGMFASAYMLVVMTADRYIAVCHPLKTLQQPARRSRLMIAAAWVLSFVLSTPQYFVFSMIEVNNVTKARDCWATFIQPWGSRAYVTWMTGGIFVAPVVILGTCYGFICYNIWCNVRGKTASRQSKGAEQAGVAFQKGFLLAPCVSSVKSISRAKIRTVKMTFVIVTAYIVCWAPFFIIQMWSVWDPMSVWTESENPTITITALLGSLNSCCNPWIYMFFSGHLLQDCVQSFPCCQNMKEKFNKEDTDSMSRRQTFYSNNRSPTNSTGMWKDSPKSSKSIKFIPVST
# key: entry, value: IC50
Respond with a number, then the unit of measure.

MOLECULE	IC50
O=c1n(Cc2nc(C(F)(F)F)n(-c3ccccc3Cl)n2)nc(-c2ccc(Cl)cc2)n1C[C@H](O)C(F)(F)F	0.78 nM
CC(F)(F)c1nc(Cn2nc(-c3ccc(Cl)cc3)n(C[C@H](O)C(F)(F)F)c2=O)nn1-c1ncccc1Cl	1 nM
O=c1n(Cc2nc(C(F)(F)C3(O)CCCC3)n(-c3ccccc3Cl)n2)nc(-c2ccc(Cl)cc2)n1C[C@H](O)C(F)(F)F	0.85 nM
CC(F)(F)c1nc(Cn2nc(-c3ccc(Cl)cc3)n(C[C@H](O)C(F)(F)F)c2=O)nn1-c1c(Cl)cccc1Cl	3.3 nM

query: For CC(F)(F)c1nc(Cn2nc(-c3ccc(Cl)cc3)n(C[C@H](O)C(F)(F)F)c2=O)nn1-c1ccccc1OC(F)(F)F , what is its reported IC50?
result: 4.15 nM

query: Recorded IC50 for O=c1n(Cc2nc(C(F)(F)F)n(-c3cccc(F)c3)n2)nc(-c2ccc(Cl)cc2)n1C[C@H](O)C(F)(F)F , please?
result: 49.6 nM

query: What does the record list as IC50 for CC(F)c1nc(Cn2nc(-c3ccc(Cl)cc3)n(C[C@H](O)C(F)(F)F)c2=O)nn1-c1cnccc1Cl (single isomer, unassigned) [Example 6] ?
result: 0.48 nM

query: // IC50 lookup, key: CC(F)c1nc(Cn2nc(-c3ccc(Cl)cc3)n(C[C@H](O)C(F)(F)F)c2=O)nn1-c1ncccc1C(F)(F)F (single isomer, unassigned) [Example 12]
result: 3.8 nM

query: So what's the measured IC50 for this one? CC(F)c1nc(Cn2nc(-c3ccc(Cl)cc3)n(C[C@H](O)C(F)(F)F)c2=O)nn1-c1cnccc1Cl (single isomer, unassigned) [Example 5]
result: 6.95 nM

query: What value of IC50 has been recorded for this entry: CC(F)c1nc(Cn2nc(-c3ccc(Cl)cc3)n(C[C@H](O)C(F)(F)F)c2=O)nn1-c1ccccc1Cl (single isomer, unassigned) [Example 3]
result: 0.9 nM

query: Please look up its IC50: CC(F)(F)c1nc(Cn2nc(-c3ccc(Cl)cc3)n(C[C@H](O)C(F)(F)F)c2=O)nn1-c1cnccc1C(F)(F)F
result: 2 nM

----------
target: human V1a receptor (Homo sapiens); construct: expressed in transfected cells; host or cells: CHO K1 (ATCC), also stably transfected with a modified aequorin; assay: Cellular in vitro assay for vasopressin receptor activity, V1a cell line (aequorin luminescence); type: cell-based; conditions: ratio of the IC50 on human V2 to the IC50 on human V1a
VALUE_KIND: ratio IC50 hV2/hV1a

Below, 2 molecules whose answers are already recorded.
MOLECULE	ASSAYED_TARGET	VALUE_REPORTED
CCc1ccccc1-n1nc(Cn2nc(-c3ccc(Cl)cc3)n(C[C@H](O)C(F)(F)F)c2=O)nc1C(C)(F)F	human V1a receptor (Homo sapiens)	1.0
CC(F)c1nc(Cn2nc(-c3ccc(Cl)cc3)n(C[C@H](O)C(F)(F)F)c2=O)nn1-c1ccccc1C#N (single isomer, unassigned) [Example 40]	human V1a receptor (Homo sapiens)	14.7

Turning now to a further record.
query: Sample O=c1n(Cc2nc(C(F)(F)C3CCOCC3)n(-c3ccccc3Cl)n2)nc(-c2ccc(Cl)cc2)n1C[C@H](O)C(F)(F)F — what was its ratio IC50 hV2/hV1a?
result: 5.0
